Assay: Blood clearance in Sprague-Dawley rat at 1 mg/kg, iv and 2 mg/kg, po
Assay type: ADME, organism-based
Settings: whole blood
ATTRIBUTE MEASURED: clearance
# number then unit; no other words

Endpoint output: clearance of `COc1cc(-c2ccc(N[C@@H](C)c3ccc(F)cc3)nc2)ccc1-n1cnc(C)c1.Cl` . Value? 12.2 mL/min/kg

* * *

Overview of recorded pIC50 for various molecules
Molecular target: Gamma-secretase
Test: Inhibition of gamma-secretase in human SHSY5Y cells expressing human recombinant Swedish variant of APP K595N/M596L assessed as reduction of amyloid beta42 level after 48 hrs by AlphaLISA assay
Assay type: cell-based
Settings: sh-sy5y

| SMILES REPRESENTATION | pIC50 |
| --- | --- |
| Cc1cn(-c2ccc(-c3ccc(N[C@@H](C)c4ccc(F)cc4)nc3)cc2OC(C)C)cn1 | 5.5 |
| COc1cc(-c2cnc(N[C@@H](C)c3ccc(F)cc3)s2)ccc1-n1cnc(C)c1 | 6.1 |
| COc1cc(-c2ccc(N[C@@H](C)c3ccc(F)cc3)nc2)ccc1-c1cc(C)ns1 | 6.6 |

# evaluate next
Endpoint output: pIC50 of `Cc1cn(-c2ccc(-c3ccc(N[C@@H](C)c4ccc(F)cc4)nc3)cc2-c2ccccc2)cn1` . Value? 4.8

* * *

Experiment: Half life in Sprague-Dawley rat at 1 mg/kg, iv and 2 mg/kg, po
Assay type: ADME, organism-based
Settings: in vivo
ATTRIBUTE MEASURED: half-life (h)
Please respond with the number in h and leave the unit unwritten.

Endpoint output: half-life of `COc1cc(-c2ccc(N[C@@H](C)c3ccc(F)cc3)nc2)ccc1-n1cnc(C)c1.Cl` . Value? 3.3
